- assay.comment: viability loss in pontine glioma line – cell-based, SU-DIPG-IV, MIPE4.0, CellTiter-Glo, qHTS, dose response (AID 1347063);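 also: compound exposure lasted 48 hours before the viability readout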
- condition.label: CellTiter-Glo ATP luminescence
Results filed as inconclusive are left out. Calls of active or inactive are those of the source. The limit is not given here; nearly all actives have AC50 up to about 30 µM. Where a SMILES comes first, the peptide text is derived from it. The star is where a group is joined. Cbz = O=C(OCc1ccccc1)*
Labels: active, inactive

O=C1CCC[C@@H]2[C@H]3CCC[N+]4([O-])CCC[C@@H](CN12)[C@@H]34 (some centres undefined)
inactive
C=CCn1c(=O)c2cnc(Nc3ccc(N4CCN(C)CC4)cc3)nc2n1-c1cccc(C(C)(C)O)n1
active
Cn1c(Nc2ccc(C(F)(F)F)cc2)nc2cc(Oc3ccnc(-c4ncc(C(F)(F)F)[nH]4)c3)ccc21
active
Nc1ccc(-c2ccc3ncc4ccc(=O)n(-c5cccc(C(F)(F)F)c5)c4c3c2)cn1
active
O=c1c(-c2ccc(O)cc2)coc2cc(O[C@@H]3O[C@H](CO)[C@@H](O)[C@H](O)[C@H]3O)ccc12
inactive
CO[C@H]1C[C@@H]2CC[C@@H](C)[C@@](O)(O2)C(=O)C(=O)N2CCCC[C@H]2C(=O)O[C@H]([C@H](C)C[C@@H]2CC[C@@H](OP(C)(C)=O)[C@H](OC)C2)CC(=O)[C@H](C)/C=C(\C)[C@@H](O)[C@@H](OC)C(=O)[C@H](C)C[C@H](C)/C=C/C=C/C=C/1C
active
O=C(O)C1=CO[C@@H](O[C@@H]2O[C@H](CO)[C@@H](O)[C@H](O)[C@H]2O)[C@@H]2C(CO)=CC[C@H]12
inactive
CC[C@@]1([C@@H]2O[C@@H]([C@H]3O[C@@](O)(CO)[C@H](C)C[C@@H]3C)C[C@@H]2C)CC[C@H]([C@]2(C)CC[C@]3(C[C@H](O)[C@@H](C)[C@@H]([C@@H](C)[C@@H](OC)[C@H](C)C(=O)O)O3)O2)O1
active
O=C(Nc1nc2cccc(-c3ccc(CN4CCS(=O)(=O)CC4)cc3)n2n1)C1CC1
active
Cc1cc(Nc2ncc3c(n2)N(C)C(=O)N(c2cc(NC(=O)c4cccc(C(F)(F)F)c4)ccc2C)C3)n(C)n1
active
O=C(/C=C/c1cccnc1)NCCCCC1CCN(C(=O)c2ccccc2)CC1
active
CC(C)CNc1ccnc(NCc2csc(-c3ccccc3)n2)n1
active
CC(=O)N[C@H]1[C@H](O[C@@H]2c3ccc(c(Cl)c3)Oc3cc4cc(c3O[C@@H]3O[C@H](CO)[C@@H](O)[C@H](O)[C@H]3NC(=O)CCCCCCCC(C)C)Oc3ccc(cc3Cl)C[C@H]3NC(=O)[C@H](N)c5ccc(O)c(c5)Oc5cc(O)cc(c5)[C@H](NC3=O)C(=O)N[C@H]4C(=O)N[C@H]3C(=O)N[C@@H]2C(=O)N[C@@H](C(=O)O)c2cc(O)cc(O[C@H]4O[C@H](CO)[C@@H](O)[C@H](O)[C@@H]4O)c2-c2cc3ccc2O)O[C@H](CO)[C@@H](O)[C@@H]1O
inactive
Nc1nc(=O)n([C@H]2C[C@H](O)[C@@H](CO)O2)cc1F
inactive
CO[C@H]1C[C@@H]2CC[C@@H](C)[C@@](O)(O2)C(=O)C(=O)N2CCCC[C@H]2C(=O)O[C@H]([C@@H](C)C[C@@H]2CC[C@@H](O)[C@H](OC)C2)CC(=O)[C@H](C)/C=C(\C)[C@@H](O)[C@@H](OC)C(=O)[C@H](C)C[C@H](C)/C=C/C=C/C=C/1C
active
COc1cccc(Nc2c(C(N)=O)cnc3c(C)cc(S(=O)(=O)c4cccc(C(=O)N(C)C)c4)cc23)c1
inactive
OCCNC1CCCc2c1[nH]c1ccc(-c3ccccc3)cc21 (centres undefined)
active
Cc1ccc(NC(=O)C2(c3ccc4c(c3)OC(F)(F)O4)CC2)nc1-c1cccc(C(=O)O)c1
active
C[N+](C)([O-])CCNc1ccc(NCC[N+](C)(C)[O-])c2c1C(=O)c1c(O)ccc(O)c1C2=O
inactive
O=C(O)[C@H](CC(=O)N1C[C@H]2CCCC[C@H]2C1)Cc1ccccc1
inactive
O=C1NC(=O)/C(=C/c2ccc3nccc(-c4ccncc4)c3c2)S1
active
NC(=O)c1cccc2[nH]c(-c3ccc([C@H]4CCCN4)cc3F)nc12
inactive
CC(C)C[C@@H](C=O)NC(=O)[C@H](CC(C)C)NC(=O)[C@H](CC(C)C)NC(=O)OCc1ccccc1 (Cbz-Leu-Leu-Leu-aldehyde)
active
CC1(C)SCCN(S(=O)(=O)c2ccc(OCC#CCO)cc2)[C@H]1C(=O)NO
inactive
COc1cc2ncnc(Nc3cccc(Cl)c3)c2cc1OC
active
Nc1cccc(-c2cc3c(Oc4cccc(O)c4)ncnc3[nH]2)c1
active
COc1ccc(C2CC(c3ccccc3)=NN2c2ccc(S(N)(=O)=O)cc2)cc1 (centres undefined)
active
CCC(CC)[C@H](NC(C)=O)[C@@H]1[C@H](O)[C@@H](C(=O)O)C[C@H]1N=C(N)N
inactive
CNC(=O)c1cc(COc2nnc(Nc3ccc(Cl)cc3)c3ccoc23)ccn1
active
